B1: POMT2 (parent)
chain: VKYNSCADRPFSAPWWFWLSLTGV

# Variants of: B1
# method.notes: protein stability index of a GFP-peptide fusion (GPS, HEK-293T) (PSI 1-6); higher = more stable;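 note: lentivirally expressed fusions sorted by FACS into six bins by GFP to DsRed ratio, PSI derived from sequencing read proportions per bin multiplied by bin number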
# condition.set: c terminus: a fixed tail appended

change: Y3K
protein stability index: 2.11

change: S20M
protein stability index: 3.17

change: G23N
protein stability index: 1.69

change: S20F
protein stability index: 1.04

change: F11G
protein stability index: 2.84

change: T22K
protein stability index: 2.12

change: C6S
protein stability index: 2.14

change: F17K
protein stability index: 2.65

change: G23S
protein stability index: 1.47

change: P14C
protein stability index: 2.27

change: R9A
protein stability index: 2.8

change: R9W
protein stability index: 3.34

change: W16I
protein stability index: 3.2

change: N4T
protein stability index: 3.25

change: D8L
protein stability index: 3

change: V24A
protein stability index: 2.85

change: P10L
protein stability index: 2.5

change: S12F
protein stability index: 2.65

change: D8P
protein stability index: 3.01

change: V1R
protein stability index: 1.98

change: P14A
protein stability index: 2.21

change: V1H
protein stability index: 1.1
